- target.system: trypsin
- experiment: phage TRF on trypsin
Label 1 for high-side Tryspin binding signal (FU) (at or above 20000 FU) and 0 for low-side Tryspin binding signal (FU) (below it).

# binder, assigned.class
data = [
    ("KB_A11 (scFv on phage) (scFv, V domains shown) VH: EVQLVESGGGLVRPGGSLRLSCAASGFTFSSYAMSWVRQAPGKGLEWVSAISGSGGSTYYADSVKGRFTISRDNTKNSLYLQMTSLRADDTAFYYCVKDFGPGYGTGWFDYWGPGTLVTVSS VL: YLNWYQQKPGKAPKLLIYAAEICPRILMRCKQDSDCLAGCVCGPNGFCGPSSGIPARFSGSGYGTDFTLTINNIESEDAAYYFCLQHDNFPYTFGQGTKVEIKR", 0),
    ("KB_B01 (scFv on phage) (scFv, V domains shown) VH: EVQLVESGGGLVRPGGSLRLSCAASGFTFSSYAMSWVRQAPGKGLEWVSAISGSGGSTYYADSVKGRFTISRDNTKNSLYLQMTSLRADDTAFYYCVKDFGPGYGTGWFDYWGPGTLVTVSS VL: AVNWYQQLPGKAPKLLIYAAAGCPRILMRCKQDSDCLAGCVCGPNGFCGTRSGVSDRFSGSKSGTSASLAISGLRSEDEADYYCAAWDDSLRAYVFGTGTKLTVLG", 1),
    ("KB_C08 (scFv on phage) (scFv, V domains shown) VH: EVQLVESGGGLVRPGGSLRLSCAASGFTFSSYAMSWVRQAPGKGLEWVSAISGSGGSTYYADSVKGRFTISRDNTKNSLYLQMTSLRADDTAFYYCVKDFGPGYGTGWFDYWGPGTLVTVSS VL: AVNWYQQLPGKAPKLLIYAAAVCPRILMRCKQDSDCLAGCVCGPNGFCGTRSGIPERFSGSKSGTSAFLAISGLRSEDEADYYCAAWDDSLSGVVFGGGTKLTVLG", 1),
    ("KB_A06 (scFv on phage) (scFv, V domains shown) VH: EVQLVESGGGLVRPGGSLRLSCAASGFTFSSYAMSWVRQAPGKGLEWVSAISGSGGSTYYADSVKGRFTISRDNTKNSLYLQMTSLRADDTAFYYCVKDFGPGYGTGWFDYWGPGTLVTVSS VL: AVNWYQQLPGKAPKLLIYAAVRCPRILMRCKQDSDCLAGCVCGPNGFCGTPSGIPERFSGSIDRSTNSASLTISGLKTEDEADYYCQSYDSSNLNWVFGGGTKLTVLG", 1),
    ("KB_A10 (scFv on phage) (scFv, V domains shown) VH: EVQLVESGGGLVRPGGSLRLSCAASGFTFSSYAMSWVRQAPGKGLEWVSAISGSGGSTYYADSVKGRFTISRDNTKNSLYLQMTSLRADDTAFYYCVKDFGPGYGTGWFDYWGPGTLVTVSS VL: AVNWYQQLPGKAPKLLIYAAGGCPRILMRCKQDSDCLAGCVCGPNGFCGSNSGVPDRFSGSKSGNTASLTISGLQSEDEADYYCAAWDDSLSGVVFGGGTQLTVLG", 1),
    ("KB_B11 (scFv on phage) (scFv, V domains shown) VH: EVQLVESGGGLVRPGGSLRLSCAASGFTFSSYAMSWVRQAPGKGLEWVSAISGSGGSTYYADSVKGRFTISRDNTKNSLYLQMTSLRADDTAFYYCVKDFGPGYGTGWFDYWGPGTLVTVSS VL: TQPPSVSEAPRQRVTITCGSRPCPRILMRCKQDSDCLAGCVCGPNGFCGSHNWYQQLPGSSPTTVIYEDNQRPSGVPDRFSGSIDRSSNSASLTISGLKTEDEADYYCQSYDSSNHRVVFGGGTKLTVLG", 0),
    ("KB_B12 (scFv on phage) (scFv, V domains shown) VH: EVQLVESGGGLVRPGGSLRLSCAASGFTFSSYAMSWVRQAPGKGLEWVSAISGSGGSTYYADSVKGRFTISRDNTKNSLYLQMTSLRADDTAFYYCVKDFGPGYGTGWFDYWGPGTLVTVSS VL: TQPPSVSEAPRQRVTITCGERPCPRILMRCKQDSDCLAGCVCGPNGFCGANNWYQQLPGSSPTTVIYEDNQRPSGVPDRFSGSIDSSSNSASLTISGLKTEDEADYYCQSYDSSNQVFGGGTKVTVLG", 0),
]
